# procedureSummary: qHTS assay to identify small molecule agonists of the AP-1 signaling pathway - cell viability counter screen (AID 1159525); also: nearly all actives have a fitted effect of over 55% in size
# studyConditions: ME-180 (cervical carcinoma) AP-1-bla cells viability, ATP luminescence, 5 h; series mostly up to 76.8 µM
# Method: National Center for Advancing Translational Sciences [NCATS] NIH Chemical Genomics Center [NCGC] U.S. Environmental Protection Agency [EPA] National Institutes of Environmental Health Sciences [NIEHS] National Toxicology Program [NTP] […] After the plates were read for Beta-Lactamase assay on Envision; 3 ul Cell Titer Glo (Promega) was added to measure the cytotoxicity and the plates were then incubated at RT in dark for 30 min. […] ViewLux data was expressed as relative luminescence units. […]
Inconclusive results are not listed. Calls of active or inactive are those of the source. Calls follow the shape of the full dose curve.
reportedProperty: viability change, negative = cytotoxic

Guide cases for viability change, negative = cytotoxic, answers given:
CC1=CC(C)C(C=O)CC1 (centres undefined)
inactive
O=C(c1ccccc1)C1CCCCC1
inactive
Cn1cc(S(C)=O)c(=O)c2ccc(F)cc21 (centres undefined)
inactive
O=C(O)CCCc1ccccc1
inactive
COC(=O)NN
inactive

Look up and report measured viability change, negative = cytotoxic for this entry: CCCCCCCCCCCCCC=O
-4.58% [at 6.97 µM] (inactive)

Look up and report measured viability change, negative = cytotoxic for this entry: CC(=O)OCC(CCn1cnc2cnc(N)nc21)COC(C)=O
inactive

* * *

# testedTarget: Aromatase (Homo sapiens)
# procedureSummary: qHTS assay to identify aromatase inhibitors (AID 743083); also: % is scaled to controls: 0 for no effect and ±100 for the full control effect; nearly all actives have a fitted effect of over 55% in size
# studyConditions: MCF-7 aro ERE, testosterone-driven ERE luciferase, 24 h; series mostly up to 70.3 µM
Records with an inconclusive call do not appear. The source made the active and inactive calls. Calls come from the whole dose curve; as a rule, active = well fitted inhibition curve with a large enough effect in the repeat runs; inconclusive = weak or mixed curves; inactive = no such curve, though single readings can be large or run the other way.
Give one outcome, nothing more. List: T (active), F (inactive)

CCOC(=O)c1cccc(N)c1
F

Assay result, entry Cn1c(N)c(N=O)c(=O)n(C)c1=O — outcome?
F

Assay result, entry CCOC(=O)CCC(C)=O — outcome?
F

Assay result, entry O=C1CC2CC1C1CCCC21 (centres undefined) — outcome?
F

Assay result, entry O=C(O)Cc1ccc(CCNS(=O)(=O)c2ccc(Cl)cc2)cc1 — outcome?
F

Assay result, entry CCCCCSCCCCC — outcome?
F

Assay result, entry CC(=O)OCC(=O)[C@@]1(O)CCC2C3CCC4=CC(=O)CC[C@]4(C)C3[C@@H](O)C[C@@]21C (some centres undefined) — outcome?
F

* * *

# testedTarget: Cytochrome P450 3A4 (Homo sapiens) (UniProt P08684)
# Sequence (P08684 whole entry, looked up): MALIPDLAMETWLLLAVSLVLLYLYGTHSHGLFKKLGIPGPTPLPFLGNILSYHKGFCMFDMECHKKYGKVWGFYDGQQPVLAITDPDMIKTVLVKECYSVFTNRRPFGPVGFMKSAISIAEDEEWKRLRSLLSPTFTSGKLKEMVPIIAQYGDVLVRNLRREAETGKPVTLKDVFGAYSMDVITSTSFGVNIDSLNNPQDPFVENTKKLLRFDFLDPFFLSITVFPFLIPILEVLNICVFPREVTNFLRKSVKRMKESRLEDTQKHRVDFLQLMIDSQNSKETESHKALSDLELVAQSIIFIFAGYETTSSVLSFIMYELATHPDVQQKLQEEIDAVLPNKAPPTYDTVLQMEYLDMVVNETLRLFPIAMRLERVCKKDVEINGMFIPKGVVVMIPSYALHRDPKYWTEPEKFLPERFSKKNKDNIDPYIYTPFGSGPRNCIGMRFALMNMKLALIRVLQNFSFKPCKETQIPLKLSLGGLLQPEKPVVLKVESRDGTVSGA
# procedureSummary: Cytochrome P450 Family 3 Subfamily A Member 4 (CYP3A4) small molecule antagonists: luciferase reporter qHTS assay (AID 1671201); also: % is scaled to controls: 0 for no effect and ±100 for the full control effect; nearly all actives have a fitted effect of over 50% in size
# studyConditions: P450-Glo CYP3A4 enzyme, luciferin luminescence, 1 h; series mostly up to 115 µM
Records with an inconclusive call do not appear. Activity calls are given as the source filed them. The call rests on the fitted dose curve; in most records, active means well fitted inhibition curve with a large enough effect in the repeat runs; inconclusive means weak or mixed curves; inactive means no such curve, though single readings can be large or run the other way.
reportedProperty: activity change, negative = inhibition

Guide cases for activity change, negative = inhibition, answers given:
CC(C)=CCCC(C)CC(=O)O (stereo not given)
inactive
NS(=O)(=O)c1ccccc1Cl
inactive
Nc1c[n+](N2CCOCC2)no1
inactive
CC(C)(C)c1nnc(NS(=O)(=O)c2ccccc2)s1
inactive
COc1c(N2C[C@@H]3CCCN[C@@H]3C2)c(F)cc2c(=O)c(C(=O)O)cn(C3CC3)c12
inactive
CC/C=C\CC/C=C/CO
inactive
C=COCC1CCC(CO)CC1 (stereo not given)
inactive
CCCCCCCCCCCCCC=O
-19.9% [at 10.5 µM] (inactive)
CCOC(=O)c1cccc(N)c1
inactive
N=c1nc(N2CCCCC2)cc(N)n1O
inactive

Look up and report measured activity change, negative = inhibition for this entry: CCOC(=O)C(=O)OCC
inactive

Look up and report measured activity change, negative = inhibition for this entry: O=C1CCCC(=O)C1
inactive

Look up and report measured activity change, negative = inhibition for this entry: O=C(CCCN1CCC(O)(c2cccc(C(F)(F)F)c2)CC1)c1ccc(F)cc1
inactive

Look up and report measured activity change, negative = inhibition for this entry: Nc1nc2c(ncn2COC(CO)CO)c(=O)[nH]1
inactive

Look up and report measured activity change, negative = inhibition for this entry: CCCCCCCCS(=O)(=O)Cl
inactive

Look up and report measured activity change, negative = inhibition for this entry: CC[N+](C)(C)c1cccc(O)c1
inactive

Look up and report measured activity change, negative = inhibition for this entry: O=C(O)CN(CCOCCOCCN(CC(=O)O)CC(=O)O)CC(=O)O
0.649% [at 0.435 µM] (inactive)

Look up and report measured activity change, negative = inhibition for this entry: N=C(N)c1ccc(OCCCOc2ccc(C(=N)N)cc2)cc1
inactive

Look up and report measured activity change, negative = inhibition for this entry: CCC(=O)OC(C)c1ccccc1 (stereo not given)
inactive

Look up and report measured activity change, negative = inhibition for this entry: CC(=O)N(CC(O)CO)c1c(I)c(C(=O)NCCO)c(I)c(C(=O)NCC(O)CO)c1I (stereo not given)
inactive

Look up and report measured activity change, negative = inhibition for this entry: COC(=O)CCSCCC(=O)OC
inactive

Look up and report measured activity change, negative = inhibition for this entry: O=C(CCCN1CCN(c2ccccn2)CC1)c1ccc(F)cc1
inactive

Look up and report measured activity change, negative = inhibition for this entry: C[N+](C)(C)CCCCCC[N+](C)(C)C
inactive

Look up and report measured activity change, negative = inhibition for this entry: CCC(C)C1CCCCC1=O (stereo not given)
inactive
